molecular target: BRD9 (Homo sapiens); experiment: BRD9 degradation, HiBiT-BRD9 KI HEK293 (LgBiT) cells, NanoGlo Lytic Endpoint assay (Assay Protocol 1); format: cell-based; settings: HEK293; Assay protocol 1; BRD9 degradation; read-out: Dmax
Record form. Attribute: Dmax. Fill in for each entry.

## Task Given CCCC(c1cccc(C(=O)N2CCN(Cc3c(OC)cc(-c4cn(C)c(=O)c(C)c4C)cc3OC)CC2)c1)N(C)C(=O)/C(C#N)=C/c1nccs1 (mixture of isomers) [Compound B184] , respond with its Dmax.
## Result 40 to 70%

## Task Given COc1cc(-c2cn(C)c(=O)c(C)c2C)cc(OC)c1CN1CCN(CC(=O)NCCOc2ccc3c(c2)C(C)N(C(=O)/C(C#N)=C/c2nccs2)CC3)CC1 (mixture of isomers) [Compound B29] , respond with its Dmax.
## Result 70 to 75%

## Task Given COc1cc(-c2cn(C)c(=O)c(C)c2C)cc(OC)c1CN1CC2CCC(C1)N2Cc1cccc2c1CCN(C(=O)/C(C#N)=C/c1cccc(Br)n1)C2C (mixture of isomers) [Compound B8] , respond with its Dmax.
## Result 40 to 70%

## Task Given COc1cc(-c2cn(C)c(=O)c(C)c2C)cc(OC)c1CN1CC2CC(C1)N2Cc1cccc(C2CCCN2C(=O)/C(C#N)=C/c2cccc(Br)n2)c1 (mixture of isomers) [Compound B12] , respond with its Dmax.
## Result > 75%

## Task Given COc1cc(-c2cn(C)c(=O)c(C)c2C)cc(OC)c1CN1CCCN(Cc2cccc3c2CCN(C(=O)/C(C#N)=C/c2cccc(Br)n2)C3C)CC1 (mixture of isomers) [Compound B2] , respond with its Dmax.
## Result > 75%

## Task Given COc1ccc([C@@H]2CN(C(=O)/C(C#N)=C/c3nccs3)C[C@H]2C(=O)N2CCN(Cc3c(OC)cc(-c4cn(C)c(=O)c(C)c4C)cc3OC)CC2)cc1 [Compound B27] , respond with its Dmax.
## Result 40 to 70%

## Task Given CCCC(c1ccc(C(=O)N(C)CCC(=O)N2CCN(Cc3c(OC)cc(-c4cn(C)c(=O)c(C)c4C)cc3OC)CC2)cc1)N(C)C(=O)/C(C#N)=C/c1nccs1 (stereo not shown) [Compound B180] , respond with its Dmax.
## Result 40 to 70%

## Task Given COc1cc(-c2cn(C)c(=O)c(C)c2C)cc(OC)c1CN1CCN(Cc2cccc3c2CCN(C(=O)/C(C#N)=C/c2cc(C(F)(F)F)ccn2)C3C)CC1 (mixture of isomers) [Compound B50] , respond with its Dmax.
## Result 70 to 75%

## Task Given COc1ccc(/C=C(\C#N)C(=O)N2CCc3c(CN4CCN(Cc5c(OC)cc(-c6cn(C)c(=O)c(C)c6C)cc5OC)CC4)cccc3C2C)nc1 (mixture of isomers) [Compound B53] , respond with its Dmax.
## Result 40 to 70%

## Task Given COc1cc(-c2cn(C)c(=O)c(C)c2C)cc(OC)c1CN1CCN(Cc2cccc3c2CCN(C(=O)/C(C#N)=C/C2CC(F)(F)C2)C3C)C2(CC2)C1 (mixture of isomers) [Compound B116] , respond with its Dmax.
## Result > 75%

----------
target: BRD4 (Homo sapiens); construct: HiBiT-BRD4 HEK293 CRISPR CPM (Promega CS302312); host or cells: HEK293, CRISPR-edited (HiBiT at the BRD4 locus); assay: BRD4 degradation, HiBiT-BRD4 HEK293 CRISPR CPM cells, NanoGlo Lytic Endpoint assay (Assay Protocol 1); assay type: cell-based; conditions: Table 5
Record form. Attribute: DC50. Fill in for each entry.

## Task Report its DC50 with BRD4 (Homo sapiens) as the test system: COc1cc(-c2cn(C)c(=O)c(C)c2C)cc(OC)c1CN1CC2CC1CN2C(=O)/C(C#N)=C/C(C)(C)C (mixture of isomers) [BRD9b]
## Result 25 to 1000 nM

## Task Report its DC50 with BRD4 (Homo sapiens) as the test system: COc1cc(-c2cn(C)c(=O)c(C)c2C)cc(OC)c1CN1C2CC1CN(C(=O)/C(C#N)=C/c1cccc(Br)n1)C2 (mixture of isomers) [BRD9o]
## Result > 1000 nM

## Task Report its DC50 with BRD4 (Homo sapiens) as the test system: COc1cc(-c2cn(C)c(=O)c(C)c2C)cc(OC)c1CN1CCCN(C(=O)/C(C#N)=C/C(C)(C)C)CC1 [BRD9c]
## Result 25 to 1000 nM

## Task Report its DC50 with BRD4 (Homo sapiens) as the test system: COc1cc(-c2cn(C)c(=O)c(C)c2C)cc(OC)c1CN1CCN(C(=O)/C(C#N)=C/c2cccc(Br)n2)CC1 [BRD9h]
## Result 25 to 1000 nM

## Task Report its DC50 with BRD4 (Homo sapiens) as the test system: COc1cc(-c2cn(C)c(=O)c(C)c2C)cc(OC)c1CN(C)C1CCN(C(=O)/C(C#N)=C/C(C)(C)C)CC1 [BRD9d]
## Result > 1000 nM

----------
Target: BRD9 (Homo sapiens)
Sequence (Q9H8M2 1-597): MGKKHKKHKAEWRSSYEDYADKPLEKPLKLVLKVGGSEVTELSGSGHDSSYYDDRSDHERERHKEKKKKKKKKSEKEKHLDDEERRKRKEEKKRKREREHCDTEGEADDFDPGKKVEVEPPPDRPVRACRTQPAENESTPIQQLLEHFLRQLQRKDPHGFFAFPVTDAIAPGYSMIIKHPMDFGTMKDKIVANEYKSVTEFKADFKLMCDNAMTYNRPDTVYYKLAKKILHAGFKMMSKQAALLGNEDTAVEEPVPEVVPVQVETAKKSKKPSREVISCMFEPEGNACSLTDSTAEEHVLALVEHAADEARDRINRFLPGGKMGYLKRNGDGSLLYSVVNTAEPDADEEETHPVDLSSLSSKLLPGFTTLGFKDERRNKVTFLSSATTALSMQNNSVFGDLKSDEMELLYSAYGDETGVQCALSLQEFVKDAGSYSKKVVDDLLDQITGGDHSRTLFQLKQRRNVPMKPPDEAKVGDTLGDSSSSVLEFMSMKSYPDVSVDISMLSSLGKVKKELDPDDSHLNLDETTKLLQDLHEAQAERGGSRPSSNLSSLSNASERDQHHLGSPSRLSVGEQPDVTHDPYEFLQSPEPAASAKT
Experiment: Degradation of BRD9 (IF), immunofluorescence in MV4-11 cells, 24 hours (Assay Protocol 2)
Assay type: cell-based
Set-up: A suspension of MV4-11 cells (ATCC CRL-9591) was prepared; host or cells: MV4-11
Conditions: MV4-11, Assay protocol 2; BRD9 degradation; read-out: Dmax
measurement.type: Dmax

## Task Given COc1cc(-c2cn(C)c(=O)c(C)c2C)cc(OC)c1CN1CCN(Cc2cccc3c2CCN(C(=O)/C(C#N)=C/C(C)C)C3C(C)C)CC1 (mixture of isomers) , respond with its Dmax.
## Result > 75%

## Task Given COc1cc(-c2cn(C)c(=O)c(C)c2C)cc(OC)c1CN1CC(Oc2ccc3c(c2)CCN(C(=O)/C(C#N)=C/c2cccc(Br)n2)C3C)C1 (mixture of isomers) , respond with its Dmax.
## Result 40 to 70%

## Task Given COc1cc(-c2cn(C)c(=O)c(C)c2C)cc(OC)c1CN(C)Cc1cccc2c1CCN(C(=O)/C(C#N)=C/c1cccc(Br)n1)C2C (mixture of isomers) , respond with its Dmax.
## Result > 75%

## Task Given COc1cc(/C=C(\C#N)C(=O)N2CCc3c(CN4CCN(Cc5c(OC)cc(-c6cn(C)c(=O)c(C)c6C)cc5OC)CC4)cccc3C2C)c(F)cn1 (mixture of isomers) , respond with its Dmax.
## Result 40 to 70%

## Task Given COc1cc(-c2cn(C)c(=O)c(C)c2C)cc(OC)c1CN1CC2CC(C1)N2Cc1ccc2c(c1)[C@H](C)N(C(=O)/C(C#N)=C/C(C)(C)C)CC2 (single isomer, unassigned) , respond with its Dmax.
## Result > 75%

----------
Molecular target: BRD9 (Homo sapiens)
Sequence (Q9H8M2 1-597): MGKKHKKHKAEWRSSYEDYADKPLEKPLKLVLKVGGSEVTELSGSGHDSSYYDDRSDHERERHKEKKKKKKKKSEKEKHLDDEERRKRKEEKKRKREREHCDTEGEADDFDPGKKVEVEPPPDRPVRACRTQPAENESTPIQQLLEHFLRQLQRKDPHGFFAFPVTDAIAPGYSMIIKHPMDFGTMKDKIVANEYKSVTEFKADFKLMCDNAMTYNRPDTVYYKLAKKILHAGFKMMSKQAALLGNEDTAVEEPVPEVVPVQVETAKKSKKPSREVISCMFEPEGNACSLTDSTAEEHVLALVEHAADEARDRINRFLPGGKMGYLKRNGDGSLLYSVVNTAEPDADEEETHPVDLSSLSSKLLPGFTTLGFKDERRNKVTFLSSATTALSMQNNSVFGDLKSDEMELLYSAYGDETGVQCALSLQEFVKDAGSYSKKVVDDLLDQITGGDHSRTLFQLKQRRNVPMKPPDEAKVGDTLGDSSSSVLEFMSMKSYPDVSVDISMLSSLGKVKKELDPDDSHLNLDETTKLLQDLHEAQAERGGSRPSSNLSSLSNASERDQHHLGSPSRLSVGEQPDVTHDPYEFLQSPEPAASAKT
Assay: Degradation of BRD9 (IF), immunofluorescence in MV4-11 cells, 24 hours (Assay Protocol 2)
Type: cell-based
Parameters: A suspension of MV4-11 cells (ATCC CRL-9591) was prepared; host or cells: MV4-11
Settings: MV4-11, Assay protocol 2; BRD9 degradation; read-out: Dmax
Record form. Attribute: Dmax. Fill in for each entry.

## Task Report its Dmax with BRD9 (Homo sapiens) as the test system: COc1cc(-c2cn(C)c(=O)c(C)c2C)ccc1OC1CCN(Cc2cccc3c2CCN(C(=O)/C(C#N)=C/C(C)(C)C)C3C(C)C)CC1 (mixture of isomers)
## Result 70 to 75%

## Task Report its Dmax with BRD9 (Homo sapiens) as the test system: COc1cc(-c2cn(C)c(=O)c(C)c2C)cc(OC)c1CN1CCN(Cc2cccc3c2CCN(C(=O)/C(C#N)=C/C(C)(C)C)C3C)C(C)(C)C1 (mixture of isomers)
## Result > 75%

## Task Report its Dmax with BRD9 (Homo sapiens) as the test system: COc1cc(-c2cn(C)c(=O)c(C)c2C)cc(OC)c1CN1CCC(N(C)c2cccc3c2CCN(C(=O)/C(C#N)=C/C(C)(C)C)C3C)C(F)(F)C1 (mixture of isomers)
## Result 40 to 70%

## Task Report its Dmax with BRD9 (Homo sapiens) as the test system: COc1cc(-c2cn(C)c(=O)c(C)c2C)cc(OC)c1CN1CC2CC(C1)N2Cc1ccc2c(c1)[C@@H](C)N(C(=O)/C(C#N)=C/C(C)(C)C)CC2 (single isomer, unassigned)
## Result 40 to 70%

## Task Report its Dmax with BRD9 (Homo sapiens) as the test system: COc1cc(-c2cn(C)c(=O)c(C)c2C)cc(OC)c1CN1CCN(Cc2ccc3c(c2)[C@H](C)N(C(=O)/C(C#N)=C/C(C)(C)CF)CC3)C2(CC2)C1 (single isomer, unassigned)
## Result 40 to 70%

## Task Report its Dmax with BRD9 (Homo sapiens) as the test system: COc1cc(-c2cn(C)c(=O)c(C)c2C)cc(OC)c1CN1CCC(Cc2cccc3c2CCN(C(=O)/C(C#N)=C/C(C)(C)CF)[C@H]3C)CC1 (single isomer, unassigned)
## Result 70 to 75%

## Task Report its Dmax with BRD9 (Homo sapiens) as the test system: COc1cc(-c2cn(C)c(=O)c(C)c2C)cc(OC)c1CN1CCN(Cc2ccc3c(c2)[C@H](C)N(C(=O)/C(C#N)=C/C(C)(C)CF)CC3)CC12CC2 (single isomer, unassigned)
## Result > 75%

## Task Report its Dmax with BRD9 (Homo sapiens) as the test system: COc1cc(-c2cn(C)c(=O)c(C)c2C)cc(OC)c1CN1CCN(Cc2cccc3c2CCN(C(=O)/C(C#N)=C\C24CC(OC)(C2)C4)C3C)C2(CC2)C1 (mixture of isomers)
## Result > 75%

## Task Report its Dmax with BRD9 (Homo sapiens) as the test system: COc1cc(-c2cn(C)c(=O)c(C)c2C)cc(OC)c1CN1CCN(Cc2cccc3c2CCN(C(=O)/C(C#N)=C\C(C)(C)CF)C3C)C2(CC2)C1 (mixture of isomers)
## Result > 75%

## Task Report its Dmax with BRD9 (Homo sapiens) as the test system: COc1cc(-c2cn(C)c(=O)c3ccsc23)cc(OC)c1CN1CCN(Cc2cccc3c2CCN(C(=O)/C(C#N)=C/C(C)(C)C)C3C)C2(CC2)C1 (mixture of isomers)
## Result > 75%
